Cited source for all entries: patent US9796700B2

Biological target: MEK1 activated ERK1 (Homo sapiens (Human))
Sequence (P27361 whole entry): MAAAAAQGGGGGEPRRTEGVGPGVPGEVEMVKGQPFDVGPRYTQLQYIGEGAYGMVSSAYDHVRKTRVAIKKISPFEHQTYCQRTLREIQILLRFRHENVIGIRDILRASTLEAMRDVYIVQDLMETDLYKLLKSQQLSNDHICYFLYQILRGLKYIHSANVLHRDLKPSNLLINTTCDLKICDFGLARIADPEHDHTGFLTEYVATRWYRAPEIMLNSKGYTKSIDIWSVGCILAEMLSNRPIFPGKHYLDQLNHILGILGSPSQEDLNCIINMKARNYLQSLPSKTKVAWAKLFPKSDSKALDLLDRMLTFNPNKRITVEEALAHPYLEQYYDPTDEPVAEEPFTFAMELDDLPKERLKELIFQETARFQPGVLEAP
Assay: Omnia continuous-read kinase assay for potency against MEK1 activated ERK1
Type: biochemical
Conditions: MEK1 activated ERK1, WT, ATP at KM
Description: Omnia Assay Protocol for Potency Assessment Against MEK1 Activated ERK1: The protocol below describes continuous-read kinase assays to measure potency of compounds against activated ERK1 enzyme. The mechanics of the assay platform are best described by the vendor (Invitrogen, Carlsbad, Calif.) on their website at the following URL: invitrogen.com/site/us/en/home.html. […]
pIC50: −log10 of the molar value.

{"structureString": "C=CC(=O)Nc1cccc(Nc2nc(Nc3ccc(N4CCN(C(C)=O)CC4)cc3OC)ncc2Cl)c1", "experimentalTarget": "MEK1 activated ERK1 (Homo sapiens (Human))", "pIC50": "< 6.00"}
{"structureString": "C=CC(=O)Nc1ccccc1Oc1nc(Nc2ccc(N3CCN(C(C)=O)CC3)cc2OC)ncc1C(N)=O", "experimentalTarget": "MEK1 activated ERK1 (Homo sapiens (Human))", "pIC50": "> 7.00"}
{"structureString": "C=CC(=O)Nc1ccccc1Nc1nc(Nc2ccc(N3CCN(C(C)=O)CC3)cc2OC)ncc1F", "experimentalTarget": "MEK1 activated ERK1 (Homo sapiens (Human))", "pIC50": "< 6.00"}
{"structureString": "C=CC(=O)Nc1cc(C)ccc1Nc1nc(Nc2cc(OC)nc(N3CCC(O)CC3)c2)ncc1C(F)(F)F", "experimentalTarget": "MEK1 activated ERK1 (Homo sapiens (Human))", "pIC50": "< 6.00"}
{"structureString": "C=CC(=O)Nc1cc(C)ccc1Nc1nc(N[C@H]2CCCN(C(=O)CO)C2)ncc1C(F)(F)F", "experimentalTarget": "MEK1 activated ERK1 (Homo sapiens (Human))", "pIC50": "> 7.00"}
{"structureString": "C=CC(=O)Nc1ccccc1Nc1nc(Nc2cc(OC)nc(N3CCCC3)c2)ncc1C(F)(F)F", "experimentalTarget": "MEK1 activated ERK1 (Homo sapiens (Human))", "pIC50": "> 7.00"}
{"structureString": "C=CC(=O)Nc1ccccc1Nc1nc(N[C@H]2CCCN(C(=O)OC(C)(C)C)C2)ncc1Cl", "experimentalTarget": "MEK1 activated ERK1 (Homo sapiens (Human))", "pIC50": "< 6.00"}
{"structureString": "C=CC(=O)Nc1ccccc1Nc1nc(N[C@H]2CCCN(C(=O)[C@@H](C)O)C2)ncc1Cl", "experimentalTarget": "MEK1 activated ERK1 (Homo sapiens (Human))", "pIC50": "> 7.00"}
{"structureString": "CCC(=O)Nc1ccccc1Nc1nc(N[C@H]2CCCN(C(C)=O)C2)ncc1C(F)(F)F", "experimentalTarget": "MEK1 activated ERK1 (Homo sapiens (Human))", "pIC50": "> 7.00"}
